Values from patent US7098340B2

# assay_system: androgen receptor (Homo sapiens, UniProt P10275)
# Sequence (P10275 1-920 Q868H): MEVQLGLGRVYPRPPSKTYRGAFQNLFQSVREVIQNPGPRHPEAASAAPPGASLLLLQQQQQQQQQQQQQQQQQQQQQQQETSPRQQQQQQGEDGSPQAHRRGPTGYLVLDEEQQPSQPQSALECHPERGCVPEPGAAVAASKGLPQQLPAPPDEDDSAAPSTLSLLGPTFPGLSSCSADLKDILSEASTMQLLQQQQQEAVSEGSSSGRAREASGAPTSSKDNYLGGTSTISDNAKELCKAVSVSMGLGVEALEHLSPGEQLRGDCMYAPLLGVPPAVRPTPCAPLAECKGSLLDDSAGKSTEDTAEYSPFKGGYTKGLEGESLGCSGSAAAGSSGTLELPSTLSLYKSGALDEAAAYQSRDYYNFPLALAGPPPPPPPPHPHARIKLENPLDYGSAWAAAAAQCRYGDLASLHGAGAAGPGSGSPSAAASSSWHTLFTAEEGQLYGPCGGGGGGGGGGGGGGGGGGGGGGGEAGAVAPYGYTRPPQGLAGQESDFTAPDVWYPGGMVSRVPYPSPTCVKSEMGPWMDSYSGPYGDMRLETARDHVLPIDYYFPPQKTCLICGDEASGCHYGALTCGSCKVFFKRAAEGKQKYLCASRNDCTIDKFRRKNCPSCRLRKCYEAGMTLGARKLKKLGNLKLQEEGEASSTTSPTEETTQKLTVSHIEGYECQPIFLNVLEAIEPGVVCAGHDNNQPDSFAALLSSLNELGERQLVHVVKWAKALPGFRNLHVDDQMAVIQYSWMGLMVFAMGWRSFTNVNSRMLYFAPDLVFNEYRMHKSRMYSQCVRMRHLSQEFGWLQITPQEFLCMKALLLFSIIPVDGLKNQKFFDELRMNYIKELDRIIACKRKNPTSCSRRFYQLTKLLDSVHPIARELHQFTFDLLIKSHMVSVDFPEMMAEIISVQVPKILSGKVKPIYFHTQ
# test_protocol: AR Antagonist Cell Assay (MMTV-luciferase reporter, DHT-stimulated)
# experimental_conditions: MDA-MB453-MMTV clone 54-19 cells; antagonism of 100 pM DHT, 17 hr, luciferase readout
recorded_metric: IC50

Observe how each entry below is paired with its result.
1. CN(CCC#N)S(=O)(=O)c1ccc(Cc2ccc3[nH]c(=O)cc(C(F)(F)F)c3c2)cc1: > 10 µM
2. O=c1cc(C(F)(F)F)c2cc(Cc3ccc(S(=O)(=O)NC4(CO)CCCC4)cc3)ccc2o1: > 10 µM
3. O=c1cc(C(F)(F)F)c2cc(Cc3ccc(S(=O)(=O)NC(CCO)c4ccccc4)cc3)ccc2[nH]1 (stereo not shown): > 10 µM

## Input Identify the reported IC50 for the following entry. O=C1CCCN1CCCNS(=O)(=O)c1ccc(Cc2ccc3oc(=O)cc(C(F)(F)F)c3c2)cc1
## Output 3.44 µM

## Input In one line, give reported IC50 of the entry O=c1cc(C(F)(F)F)c2cc(Cc3ccc(S(=O)(=O)NC(CCO)c4ccccc4)cc3)ccc2o1 (stereo not shown) .
## Output 6.52 µM

## Input Quickly give me recorded IC50 for O=c1cc(C(F)(F)F)c2cc(Cc3ccc(S(=O)(=O)N[C@H]4CCCC[C@H]4OCc4ccccc4)cc3)ccc2[nH]1
## Output > 10 µM

## Input Give the reported IC50 for this compound. CN1CCC(N(C)S(=O)(=O)c2ccc(Cc3ccc4oc(=O)cc(C(F)(F)F)c4c3)cc2)CC1
## Output > 10 µM
